B1: WDR88 (parent)
chain: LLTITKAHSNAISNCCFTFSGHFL

# Variants of: B1
# assay details: protein stability index of a GFP-peptide fusion (GPS, HEK-293T) (PSI 1-6); higher = more stable;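 note: lentivirally expressed fusions sorted by FACS into six bins by GFP to DsRed ratio, PSI derived from sequencing read proportions per bin multiplied by bin number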
# measurement setup: c terminus: a fixed tail appended
Label scheme, based on protein stability index: lo (below 2), med (2 to below 3), hi (3 or more)

Hi, small favor: classify H8F by its protein stability index when you get a moment. med

Hi, small favor: classify S9R by its protein stability index when you get a moment. lo

Hi, small favor: classify A11Q by its protein stability index when you get a moment. hi

Hi, small favor: classify A11E by its protein stability index when you get a moment. hi

Hi, small favor: classify H8Q by its protein stability index when you get a moment. med

Hi, small favor: classify I12P by its protein stability index when you get a moment. med

Hi, small favor: classify F17E by its protein stability index when you get a moment. med

Hi, small favor: classify A11N by its protein stability index when you get a moment. hi

Hi, small favor: classify S9F by its protein stability index when you get a moment. hi

Hi, small favor: classify I4C by its protein stability index when you get a moment. med

Hi, small favor: classify C15L by its protein stability index when you get a moment. med

Hi, small favor: classify S13N by its protein stability index when you get a moment. med

Hi, small favor: classify L2E by its protein stability index when you get a moment. lo

Hi, small favor: classify N14Q by its protein stability index when you get a moment. lo

Hi, small favor: classify N14E by its protein stability index when you get a moment. med

Hi, small favor: classify F19Q by its protein stability index when you get a moment. lo

Hi, small favor: classify H8Y by its protein stability index when you get a moment. hi

Data origin: the supplement of paper PMC10567573
